Measured MFI HEKhT2 by item
SYSTEM UNDER TEST: T1, recombinant human TREM2-DAP12 fusion protein expressed on cells (human)
T1 construct: also called HEKhT2; 293 cells expressing human TREM2; not shown: None of these limits is stated
T1 chain: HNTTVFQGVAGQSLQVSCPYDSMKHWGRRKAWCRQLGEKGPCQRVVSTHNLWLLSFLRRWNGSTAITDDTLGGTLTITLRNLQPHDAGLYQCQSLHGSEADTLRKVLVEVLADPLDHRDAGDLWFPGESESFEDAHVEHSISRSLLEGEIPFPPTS
ASSAY PROCEDURE: FACS, HEKhT2 cells
Write it as a number; the unit MFI goes unstated.

INSERT INTO results (binder, observable, readout_number) VALUES
  ('9F5 (antibody, IgG1, V domains shown, mIgG1; VH FR 169/184/202/216, HVR 60/78/97; also called mAb T2-9F5.1; 9F5 MAb) VH: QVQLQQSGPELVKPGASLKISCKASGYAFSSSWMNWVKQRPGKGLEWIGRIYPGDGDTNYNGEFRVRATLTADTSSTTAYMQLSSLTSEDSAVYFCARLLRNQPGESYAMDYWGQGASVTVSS VL: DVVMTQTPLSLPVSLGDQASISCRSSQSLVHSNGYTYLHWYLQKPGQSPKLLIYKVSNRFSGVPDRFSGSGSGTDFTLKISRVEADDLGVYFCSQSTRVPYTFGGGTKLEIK', 'MFI HEKhT2', 2910);

Given item 6H2 (antibody, IgG2a, V domains shown, mIgG2a) VH: QVQLQESGPGLVQPSQSLSIICTVSAFSLTNYAVHWIRQSPGKGLEWLGVIWSGGSTAFNAAFISRLNISKDNSKSQVFFKMNSLQSDDTAIYYCATHYYRSTYAFSYWGQGTLVTVSA VL: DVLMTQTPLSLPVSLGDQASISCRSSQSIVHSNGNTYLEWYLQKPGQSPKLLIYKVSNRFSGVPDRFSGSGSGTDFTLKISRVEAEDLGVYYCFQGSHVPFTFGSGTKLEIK , the value recorded as its MFI HEKhT2 is 13500

Given item 8A1 (antibody, IgG2a, V domains shown, mIgG2a) VH: EVQLQQSGAELVKPGASVKISCKASGYAFSNYWMSWVKQRPGKGLEWIGQIYPGDGDTKYNGKFEGKATLTADKSSSTAYMQLSSLTSEDSAVYFCSREKGADYYGSTYSAWFSYWGQGTLVTVSA VL: DIQMTQSPASLSVSVGETVTITCRTSENVYSNLAWYQQKQGKSPQLLVYAATNLADGVPSRFSASGSATQFSLKINSLQSADFGSYYCHHFWGTPYTFGGGTKLEMN , the value recorded as its MFI HEKhT2 is 11000
